System: T1, biotin labeled hRAGE-Fc (human, UniProt Q15109 24-344, biotin-labeled (site not stated))
T1 construct: used biotinylated in HTRF and coated in ELISA; also called Biotin-labeled RAGE-Fc; biotinylated-RAGE-Fc; not shown: Fc part not described
T1 sequence (Q15109 24-344): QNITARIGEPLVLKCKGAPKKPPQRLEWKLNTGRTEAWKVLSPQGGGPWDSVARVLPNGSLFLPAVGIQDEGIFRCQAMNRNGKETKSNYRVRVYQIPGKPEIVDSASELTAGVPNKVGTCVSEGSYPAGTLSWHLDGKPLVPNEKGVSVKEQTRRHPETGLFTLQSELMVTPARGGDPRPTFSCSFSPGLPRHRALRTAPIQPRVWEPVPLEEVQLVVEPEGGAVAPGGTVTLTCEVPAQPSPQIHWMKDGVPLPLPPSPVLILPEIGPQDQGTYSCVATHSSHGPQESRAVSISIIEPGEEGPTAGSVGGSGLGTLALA
Assay Name: HTRF competition; scFv against Eu-cryptate XT-M4 for biotin-hRAGE-Fc
Assay Readout: pIC50
Units for pIC50: none; it is -log10 of a concentration expressed in mol/L.

3B2 scFv (scFv) DIQMTQSPSSLSASVGDRVTITCRASQDVGIYVNWFQQKPGKAPRRLIYRATNLADGVPSRFSGSRSGTDFTLTISSLQPEDFATYYCLEFDEHPLTFGGGTKVEIKDGGGSGGGGSGGGGSSEVQLVESGGGLVQPGGSLRLSCAASGFTFNNYWMTWVRQAPGKGLEWVASIDNSGDNTYYPDSVKDRFTISRDNAKNSLYLQMNSLRAEDTAVYYCARGGDILVGLDYWGQGTLVTVSS: 9.04
3D5 scFv (scFv) DIQMTQSPSSLSASVGDRVTITCRASQDVGIYVNWFQQKPGKAPRRLIYRATNLADGVPSRFSGSRSGTDFTLTISSLQPEDFATYYCLEFDEHPLTFGGGTKVEIKDGGGSGGGGSGGGGSSEVQLVESGGGLVQPGGSLRLSCAASGFTFNNYWMTWVRQAPGKGLEWVASIDNSGDNTYYPDSVKDRFTISRDNAKNSLYLQMNSLRAEDTAVYYCARGGDIKVGLDLWGQGTLVTVSS: 8.52
6C3 scFv (scFv) DIQMTQSPSSLSASVGDRVTITCRASQDVGIYVNWFQQKPGKAPRRLIYRATNLADGVPSRFSGSRSGTDFTLTISSLQPEDFATYYCLEFDEHPLTFGGGTKVEIKDGGGSGGGGSGGGGSSEVQLVESGGGLVQPGGSLRLSCAASGFTFNNYWMTWVRQAPGKGLEWVASIDNSGDNTYYPDSVKDRFTISRDNAKNSLYLQMNSLRAEDTAVYYCARGGDITLGLDVWGQGTLVTVSS: 8.82
6C1 scFv (scFv) DIQMTQSPSSLSASVGDRVTITCRASQDVGIYVNWFQQKPGKAPRRLIYRATNLADGVPSRFSGSRSGTDFTLTISSLQPEDFATYYCLELDEHPLTFGGGTKVEIKDGGGSGGGGSGGGGSSEVQLVESGGGLVQPGGSLRLSCAASGFTFNNYWMTWVRQAPGKGLEWVASIDNSGDNTYYPDSVKDRFTISRDNAKNSLYLQMNSLRAEDTAVYYCARGGDIKVGLDNWGQGTLVTVSS: 8.35
6B6 scFv (scFv) DIQMTQSPSSLSASVGDRVTITCRASQDVGIYVNWFQQKPGKAPRRLIYRATNLADGVPSRFSGSRSGTDFTLTISSLQPEDFATYYCLEFDEHPLTFGGGTKVEIKDGGGSGGGGSGGGGSSEVQLVESGGGLVQPGGSLRLSCAASGFTFNNYWMTWVRQAPGKGLEWVASIDNSGDNTYYPDSVKDRFTISRDNAKNSLYLQMNSLRAEDTAVYYCARGGDIIISLDWWGQGTLVTVSS: 9.19
3B4 scFv (scFv) DIQMTQSPSSLSASVGDRVTITCRASQDVGIYVNWFQQKPGKAPRRLIYRATNLADGVPSRFSGSRSGTDFTLTISSLQPEDFATYYCLEFDEHPLTFGGGTKVEIKDGGGSGGGGSGGGGSSEVQLVESGGGLVQPGGSLRLSCAASGFTFNNYWMTWVRQAPGKGLEWVASIDNSGDNTYYPDSVKDRFTISRDNAKNSLYLQMNSLRAEDTAVYYCARGGDIREGLRYWGQGTLVTVSS: 8.89
6D5 scFv (scFv) DIQMTQSPSSLSASVGDRVTITCRASQDVGIYVNWFQQKPGKAPRRLIYRATNLADGVPSRFSGSRSGTDFTLTISSLQPEDFATYYCLEFDEHPLTFGGGTKVEIKDGGGSGGGGSGGGGSSEVQLVESGGGLVQPGGSLRLSCAASGFTFNNYWMTWVRQAPGKGLEWVASIDNSGDNTYYPDSVKDRFTISRDNAKNSLYLQMNSLRAEDTAVYYCARGGDIKVSLDQWGQGTLVTVSS: 8.84
3C6 scFv (scFv) DIQMTQSPSSLSASVGDRVTITCRASQDVGIYVNWFQQKPGKAPRRLIYRATNLADGVPSRFSGSRSGTDFTLTISSLQPEDFATYYCLEFDEHPLTFGGGTKVEIKDGGGSGGGGSGGGGSSEVQLVESGGGLVQPGGSLRLSCAASGFTFNNYWMTWVRQAPGKGLEWVASIDNSGDNTYYPDSVKDRFTISRDNAKNSLYLQMNSLRAEDTAVYYCARGGDIVVGLDHWGQGTLVTVSS: 8.90

Entry 6E3 scFv (scFv) DIQMTQSPSSLSASVGDRVTITCRASQDVGIYVNWFQQKPGKAPRRLIYRATNLADGVPSRFSGSRSGTDFTLTISSLQPEDFATYYCLEFDEHPLTFGGGTKVEIKDGGGSGGGGSGGGGSSEVQLVESGGGLVQPGGSLRLSCAASGFTFNNYWMTWVRQAPGKGLEWVASIDNSGDNTYYPDSVKDRFTISRDNAKNSLYLQMNSLRAEDTAVYYCARGGDIRVSLDFWGQGTLVTVSS — recorded pIC50 = 8.76

// provenance: patent US20100120634A1
